For each record, write down the corresponding Percent Effect.
target under test: Sialic acid-binding Ig-like lectin 9 (Homo sapiens) (UniProt Q9Y336)
Sequence (Q9Y336 whole entry): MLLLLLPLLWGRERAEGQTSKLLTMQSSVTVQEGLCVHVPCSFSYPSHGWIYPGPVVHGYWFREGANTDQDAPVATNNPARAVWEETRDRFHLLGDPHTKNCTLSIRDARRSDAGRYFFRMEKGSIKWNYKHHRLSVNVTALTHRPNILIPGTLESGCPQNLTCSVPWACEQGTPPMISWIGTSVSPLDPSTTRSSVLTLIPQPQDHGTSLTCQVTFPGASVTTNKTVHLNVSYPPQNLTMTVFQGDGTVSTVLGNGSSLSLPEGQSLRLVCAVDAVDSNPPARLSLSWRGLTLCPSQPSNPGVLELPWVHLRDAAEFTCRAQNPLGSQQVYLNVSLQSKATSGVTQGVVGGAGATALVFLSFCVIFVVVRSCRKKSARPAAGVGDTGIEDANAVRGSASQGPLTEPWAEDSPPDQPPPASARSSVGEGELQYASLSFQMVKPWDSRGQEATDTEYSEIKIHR
procedure summary: Hs-Siglec9 ALPHAscreen SOP 20170721
Set-up: scale not given: direction of the effect not stated beside the values
cond: 10 µM
Give bare numbers, in %.

O=C(NCCNc1ncccn1)N1CCCC(C(F)(F)F)C1 (configuration not stated)	-0.403
CCN1CCN(c2ccc(CNC(=O)c3ccc(Cl)o3)cn2)CC1	-3.96
CCN1C(=O)CCCC12CCCN(C(=O)c1cnccn1)C2 (configuration not stated)	1.16
CC(c1ccc(Cl)cc1)N1CCN(CCS(C)(=O)=O)CC1 (configuration not stated)	6.25
O=C(NCc1nncn1-c1ccccc1)C1CC(=O)N(CC2CC2)C1 (configuration not stated)	7.22

Required: Percent Effect, one value per compound below.
1. COCCNC(=O)Cn1nc(C(C)C)c2cnn(C(C)(C)C)c2c1=O
2. O=C1CCC(C(=O)NCc2nn(-c3ccccc3)c3c2CCC3)CN1 (configuration not stated)

1: 5.56; 2: -2.63

###

target under test: Ubiquitin-activating enzyme e1, putative (Leishmania donovani (strain BPK282A1)) (UniProt E9BSI1)
Sequence (whole entry): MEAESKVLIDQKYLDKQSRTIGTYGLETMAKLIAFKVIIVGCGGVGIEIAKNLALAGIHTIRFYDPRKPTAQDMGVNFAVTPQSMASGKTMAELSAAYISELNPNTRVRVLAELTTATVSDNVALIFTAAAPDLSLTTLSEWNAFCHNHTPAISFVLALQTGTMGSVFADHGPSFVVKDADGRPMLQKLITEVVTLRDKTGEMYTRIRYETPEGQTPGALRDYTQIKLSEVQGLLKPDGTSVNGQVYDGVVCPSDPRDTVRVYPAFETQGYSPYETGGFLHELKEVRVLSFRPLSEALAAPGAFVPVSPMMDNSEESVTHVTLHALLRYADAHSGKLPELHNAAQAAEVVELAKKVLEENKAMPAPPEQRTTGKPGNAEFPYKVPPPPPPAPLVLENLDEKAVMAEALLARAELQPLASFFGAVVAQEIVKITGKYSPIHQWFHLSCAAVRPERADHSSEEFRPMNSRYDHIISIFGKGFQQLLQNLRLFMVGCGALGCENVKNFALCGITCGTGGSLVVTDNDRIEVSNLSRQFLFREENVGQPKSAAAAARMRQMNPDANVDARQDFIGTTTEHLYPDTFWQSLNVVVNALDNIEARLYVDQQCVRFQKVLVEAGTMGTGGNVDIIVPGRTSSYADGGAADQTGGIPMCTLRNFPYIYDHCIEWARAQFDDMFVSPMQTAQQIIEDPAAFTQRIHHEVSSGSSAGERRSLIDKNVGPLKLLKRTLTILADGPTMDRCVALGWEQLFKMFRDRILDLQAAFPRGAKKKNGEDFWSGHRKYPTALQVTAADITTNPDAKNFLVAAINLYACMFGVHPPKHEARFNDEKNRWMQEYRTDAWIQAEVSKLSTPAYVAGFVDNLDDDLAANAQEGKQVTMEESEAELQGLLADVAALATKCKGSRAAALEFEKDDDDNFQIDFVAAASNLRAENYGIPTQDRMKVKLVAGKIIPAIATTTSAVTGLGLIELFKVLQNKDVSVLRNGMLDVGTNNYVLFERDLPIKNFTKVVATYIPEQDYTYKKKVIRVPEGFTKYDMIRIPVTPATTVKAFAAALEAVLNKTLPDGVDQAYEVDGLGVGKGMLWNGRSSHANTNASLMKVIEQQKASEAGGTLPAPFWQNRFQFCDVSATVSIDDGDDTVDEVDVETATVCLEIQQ
procedure summary: Leishmania donovani Ubiquitin Activating Enzyme (LdE1)
Assay type: functional
Design: scale not given: direction of the effect not stated beside the values
cond: 30 µM
Entries with a potency or affinity are not part of this list.
observable: Percent Effect (%)
Numbers only, in %.

For orientation, consider the following solved cases.
Cc1cc(C)n(C2CN(CC(=O)NCC(C)(C)N3CCOCC3)C2)n1	8.86
CC(NC(=O)NCCn1ccnc1)c1ccc2c(c1)NC(=O)CO2 (stereo not given)	10.1
CN(C(=O)C1CSCN1S(=O)(=O)c1ccc(F)cc1)C1CC1 (stereo not given)	0
OC(CNCCn1cccn1)c1ccc(F)c(F)c1 (stereo not given)	16
Cc1nc(C)n(CC2CN(CCCOc3ccccc3C)CCO2)n1 (stereo not given)	-2.67

Take each entry in turn and give its Percent Effect.
1. COc1cccc(N2CCN(C(=O)[C@H](O)C3CCCCC3)CC2=O)c1
2. CCOc1ncccc1NC(=O)NC1CCN(S(C)(=O)=O)CC1

1. 5.41
2. 2.6

Reference for the values: ChEMBL document CHEMBL3988442
